Readings of inhibition at 1 µM for the listed compounds
- study.system: human muscarinic acetylcholine M3 receptor (Homo sapiens)
- Construct: expressed in transfected cells; host or cells: CHO-K1 (Chinese Hamster Ovary) cell membranes
- Sequence (P20309 whole entry): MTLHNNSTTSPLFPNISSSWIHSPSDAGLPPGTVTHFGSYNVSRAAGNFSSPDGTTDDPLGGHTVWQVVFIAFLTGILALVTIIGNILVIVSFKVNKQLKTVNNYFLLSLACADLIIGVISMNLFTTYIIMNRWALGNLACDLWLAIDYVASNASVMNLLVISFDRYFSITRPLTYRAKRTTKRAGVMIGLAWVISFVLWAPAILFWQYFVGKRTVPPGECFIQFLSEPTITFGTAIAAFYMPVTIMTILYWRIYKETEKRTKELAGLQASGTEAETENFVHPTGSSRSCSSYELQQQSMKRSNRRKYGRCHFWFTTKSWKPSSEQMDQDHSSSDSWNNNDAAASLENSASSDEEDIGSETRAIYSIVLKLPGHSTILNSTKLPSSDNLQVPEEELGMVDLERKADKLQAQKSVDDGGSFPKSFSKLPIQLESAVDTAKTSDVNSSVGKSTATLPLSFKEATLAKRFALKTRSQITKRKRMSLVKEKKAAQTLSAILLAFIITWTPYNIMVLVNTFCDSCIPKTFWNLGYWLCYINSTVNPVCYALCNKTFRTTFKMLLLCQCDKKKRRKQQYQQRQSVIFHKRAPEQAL
- assay.explanation: Muscarinic 3 receptor binding assay ([3H]NMS competition, SPA), single concentration 1 μM
- run.conditions: 1 μM compound; % inhibition specific [3H]-NMS binding
Your answer should be a plain number; it is taken to be in %.

Example cases with answers are listed next.
CCCC(C)C(=O)N1CCOC2(CCN(Cc3cccc(CCOCCC(=O)N(CCNCCc4ccc(O)c5c4OCC(=O)N5)C4CCCCC4)c3)CC2)C1 (stereo not drawn) :: 99
CCOc1ccccc1CC(=O)N1CCOC2(CCN(Cc3cccc(CCOCCC(=O)N(CCNCCc4ccc(O)c5c4OCC(=O)N5)C4CCCCC4)c3)CC2)C1 :: 98
O=C1COc2c(CCNCCN(C(=O)CCOCCc3cccc(CN4CCC5(CC4)CN(C(=O)c4ccc(C(F)(F)F)cn4)CCO5)c3)C3CCCCC3)ccc(O)c2N1 :: 99
O=C1COc2c(CCNCCN(C(=O)CCOCCc3cccc(CN4CCC5(CC4)CN(C(=O)c4cc6cc(F)ccc6[nH]4)CCO5)c3)C3CCCCC3)ccc(O)c2N1 :: 100
Cc1ccc2nc(C(=O)N3CCOC4(CCN(Cc5cccc(CCOCCC(=O)N(CCNCCc6ccc(O)c7c6OCC(=O)N7)C6CCCCC6)c5)CC4)C3)cn2c1 :: 91
O=C1COc2c(CCNCCN(C(=O)CCOCCc3cccc(CN4CCC5(CC4)CN(C(=O)[C@H](O)c4cccc(Cl)c4)CCO5)c3)C3CCCCC3)ccc(O)c2N1 :: 99
CCOc1ccccc1C(=O)N1CCOC2(CCN(Cc3cccc(CCOCCC(=O)N(CCNCCc4ccc(O)c5c4OCC(=O)N5)C4CCCCC4)c3)CC2)C1 :: 96
O=C1COc2c(CCNCCN(C(=O)CCOCCc3cccc(CN4CCC5(CC4)CN(C(=O)C4CC=CCC4)CCO5)c3)C3CCCCC3)ccc(O)c2N1 (stereo not drawn) :: 99
O=C1COc2c(CCNCCN(C(=O)CCOCCc3cccc(CN4CCC5(CC4)CN(C(=O)c4cc6ccccn6n4)CCO5)c3)C3CCCCC3)ccc(O)c2N1 :: 100
O=C1COc2c(CCNCCN(C(=O)CCOCCc3cccc(CN4CCC5(CC4)CN(C(=O)c4csc(CC(F)(F)F)n4)CCO5)c3)C3CCCCC3)ccc(O)c2N1 :: 100

Q: Provide only the value of recorded inhibition at 1 µM for O=C1COc2c(CCNCCN(C(=O)CCOCCc3cccc(CN4CCC5(CC4)CN(C(=O)c4ccc(-n6cccn6)cc4)CCO5)c3)C3CCCCC3)ccc(O)c2N1
Result: 84

Q: Return reported inhibition at 1 µM. Input compound: O=C1COc2c(CCNCCN(C(=O)CCOCCc3cccc(CN4CCC5(CC4)CN(C(=O)C(CO)c4ccccc4)CCO5)c3)C3CCCCC3)ccc(O)c2N1 (stereo not drawn)
Result: 101

----------
- study.system: human muscarinic acetylcholine M3 receptor (Homo sapiens)
assay.endpoint: IC50 (nM)
Write the number in nM without appending the unit.

CC(C)CN(CCNCCc1ccc(O)c2c1OCC(=O)N2)C(=O)CCOCCc1cccc(CCN2CCC3(CC2)CN(C(=O)c2csc(C(C)C)n2)CCO3)c1 [Example 40, ditrifluoroacetate] :: 1.26

Q: Provide IC50, tested on human muscarinic acetylcholine M3 receptor (Homo sapiens), for COc1cccc(CN(CCNCCc2ccc(O)c3c2OCC(=O)N3)C(=O)CCOCCc2cccc(CN3CCC4(CC3)CN(C(=O)c3csc(C(C)C)n3)CCO4)c2F)c1 [Example 23, ditrifluoroacetate] .
Result: 0.316

Q: Report measured IC50 on human muscarinic acetylcholine M3 receptor (Homo sapiens); entry: CC(C)c1nc(C(=O)N2CCOC3(CCN(CCc4cc(CCOCCC(=O)N(CCNCCc5ccc(O)c6c5OCC(=O)N6)C5CCCCC5)cs4)CC3)C2)cs1 [Example 63, ditrifluoroacetate]
Result: 2

----------
- study.system: Adrenergic β2 (Homo sapiens, UniProt P07550)
- Construct: Adherent H292 cells are removed from tissue culture flasks by treatment with Accutase™ cell detachment solution; endogenous in cells; host or cells: H292 cells
- Sequence (P07550 whole entry): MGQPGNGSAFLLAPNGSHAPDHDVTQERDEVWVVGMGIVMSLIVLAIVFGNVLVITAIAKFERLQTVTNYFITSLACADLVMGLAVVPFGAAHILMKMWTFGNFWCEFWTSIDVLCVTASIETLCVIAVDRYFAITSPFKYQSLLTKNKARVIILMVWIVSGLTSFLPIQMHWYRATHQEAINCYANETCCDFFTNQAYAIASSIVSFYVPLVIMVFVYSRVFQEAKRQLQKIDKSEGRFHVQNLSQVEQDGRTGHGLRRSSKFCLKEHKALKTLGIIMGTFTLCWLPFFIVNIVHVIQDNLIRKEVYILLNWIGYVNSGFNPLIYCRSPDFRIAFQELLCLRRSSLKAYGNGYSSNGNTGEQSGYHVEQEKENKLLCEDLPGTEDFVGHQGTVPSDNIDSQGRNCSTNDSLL
- assay.explanation: Adrenergic β2 mediated cAMP production in H292 cells (AlphaScreen), concentration response
- Assay type: cell-based
- run.conditions: fraction relative to the maximum activity determined for formoterol
assay.endpoint: β2 Intrinsic Activity
Just the number, please.

CC(C)c1nc(C(=O)N2CCOC3(CCN(Cc4cccc(CCOCCC(=O)N(CCNCCc5ccc(O)c6c5OCC(=O)N6)CCC(C)(C)C)c4F)CC3)C2)cs1 [Example 17, ditrifluoroacetate] :: 1.0
CCCC[C@@H](C)N(CCNCCc1ccc(O)c2c1OCC(=O)N2)C(=O)CCOCCc1cccc(CCN2CCC3(CC2)CN(C(=O)c2csc(C)n2)CCO3)c1 [Example 38, ditrifluoroacetate] :: 1.0

Please examine the following record next.
Q: For Adrenergic β2 (Homo sapiens, UniProt P07550), give β2 Intrinsic Activity of the listed compound: CCN(CCNCCc1ccc(O)c2[nH]c(=O)sc12)C(=O)CCOCCc1cc(CCN2CCC3(CC2)CN(C(=O)c2csc(C(C)C)n2)CCO3)cs1 [Example 78, ditrifluoroacetate]
Result: 1.0

----------
- study.system: human muscarinic acetylcholine M3 receptor (Homo sapiens)
- Construct: expressed in transfected cells; host or cells: CHO-K1 (Chinese Hamster Ovary) cell membranes
- assay.explanation: Muscarinic 3 receptor binding assay ([3H]NMS competition, SPA), single concentration 1 μM
- run.conditions: 1 μM compound; % inhibition specific [3H]-NMS binding
Entries and their inhibition at 1 µM
Provide the reading as a plain figure in %.

Answered examples (3):
O=C1COc2c(CCNCCN(C(=O)CCOCCc3cccc(CN4CCC5(CC4)CN(C(=O)[C@@H]4C[C@H]4c4ccccc4)CCO5)c3)C3CCCCC3)ccc(O)c2N1 :: 101
O=C1COc2c(CCNCCN(C(=O)CCOCCc3cccc(CN4CCC5(CC4)CN(C(=O)c4ccc(Cl)s4)CCO5)c3)C3CCCCC3)ccc(O)c2N1 :: 100
COCCOc1ccc(C(=O)N2CCOC3(CCN(Cc4cccc(CCOCCC(=O)N(CCNCCc5ccc(O)c6c5OCC(=O)N6)C5CCCCC5)c4)CC3)C2)cc1 :: 95

Q: Look up and state reported inhibition at 1 µM for Cc1ccc2[nH]c(C(=O)N3CCOC4(CCN(Cc5cccc(CCOCCC(=O)N(CCNCCc6ccc(O)c7c6OCC(=O)N7)C6CCCCC6)c5)CC4)C3)cc2c1
Result: 99

Q: Give reported inhibition at 1 µM value for CCCCc1nc(C(=O)N2CCOC3(CCN(Cc4cccc(CCOCCC(=O)N(CCNCCc5ccc(O)c6c5OCC(=O)N6)C5CCCCC5)c4)CC3)C2)cs1
Result: 100

Q: Please indicate inhibition at 1 µM recorded for O=C1COc2c(CCNCCN(C(=O)CCOCCc3cccc(CN4CCC5(CC4)CN(C(=O)c4cc(Br)c[nH]4)CCO5)c3)C3CCCCC3)ccc(O)c2N1
Result: 101

Q: Provide only the value of recorded inhibition at 1 µM for O=C1COc2c(CCNCCN(C(=O)CCOCCc3cccc(CN4CCC5(CC4)CN(C(=O)c4ccc(F)cc4F)CCO5)c3)C3CCCCC3)ccc(O)c2N1
Result: 100

Q: Fill in reported inhibition at 1 µM for this entry: O=C1COc2c(CCNCCN(C(=O)CCOCCc3cccc(CN4CCC5(CC4)CN(C(=O)CC4C[C@@H]6CC[C@H]4C6)CCO5)c3)C3CCCCC3)ccc(O)c2N1 (some centres unmarked)
Result: 99

Q: State its inhibition at 1 µM: O=C1COc2c(CCNCCN(C(=O)CCOCCc3cccc(CN4CCC5(CC4)CN(C(=O)Cc4noc6ccccc46)CCO5)c3)C3CCCCC3)ccc(O)c2N1
Result: 100

Q: Please report the measured inhibition at 1 µM for O=C1COc2c(CCNCCN(C(=O)CCOCCc3cccc(CN4CCC5(CC4)CN(C(=O)c4[nH]nc6c4CCCC6)CCO5)c3)C3CCCCC3)ccc(O)c2N1
Result: 99

Q: // fetch inhibition at 1 µM given entry O=C1COc2c(CCNCCN(C(=O)CCOCCc3cccc(CN4CCC5(CC4)CN(C(=O)C4(c6ccccc6)CC4)CCO5)c3)C3CCCCC3)ccc(O)c2N1
Result: 100

----------
- study.system: human muscarinic acetylcholine M3 receptor (Homo sapiens)
assay.endpoint: pIC50
Formally, pIC50 is defined as -log10 of the concentration c, with c in mol/L.

Here are 4 molecules together with their reported answers.
CC(C)c1nc(C(=O)N2CCOC3(CCN(Cc4cccc(CCOCCC(=O)N(CCNCCc5ccc(O)c6c5OCC(=O)N6)CCC(C)(C)C)c4F)CC3)C2)cs1 [Example 17, ditrifluoroacetate] :: 9.50
CC(C)c1nc(C(=O)N2CCOC3(CCN(Cc4cccc(CCOCCC(=O)N(CCNCCc5ccc(O)c6c5OCC(=O)N6)[C@H](C)c5ccccc5)c4F)CC3)C2)cs1 [Example 14, ditrifluoroacetate] :: 9.40
CC(C)c1nc(C(=O)N2CCOC3(CCN(Cc4cccc(CCOCCC(=O)N(CCF)CCNCCc5ccc(O)c6c5OCC(=O)N6)c4F)CC3)C2)cs1 [Example 72, ditrifluoroacetate] :: 9.90
CCCCc1nc(C(=O)N2CCOC3(CCN(Cc4cccc(CCOCCC(=O)N(CC)CCNCCc5ccc(O)c6c5OCC(=O)N6)c4Cl)CC3)C2)cs1 [Example 77, ditrifluoroacetate] :: 8.40

Q: # return pIC50 for Cc1ccc(CN(CCNCCc2ccc(O)c3c2OCC(=O)N3)C(=O)CCOCCc2cccc(CN3CCC4(CC3)CN(C(=O)c3csc(C(C)C)n3)CCO4)c2F)cc1 , test system: human muscarinic acetylcholine M3 receptor (Homo sapiens)
Result: 9.60
